# test system: NADPH oxidase 5 (Homo sapiens)
# test name: NOX5-dependent H2O2 signal modulators, primary screen, NOX inhibitor project, cell-based, HEK293-NOX5, Amplex Red fluorescence (AID 1161)
# experimental parameters: HEK293-NOX5, ionomycin, 45 min, higher = more signal
Note to self: values exactly at 0.3 are 1. So z-score at or above 0.3 is 1, below is -1.

Data request: Does COC(=O)[C@H](C)NC(=O)CCC1CC(OC(=O)NCCc2ccc(F)cc2)CC2(CCCC(COC(=O)NCc3ccccc3)O2)O1 (stereo not given in full) have a reported z-score of at least 0.3?
Data returned: 1

Data request: Does O=C1[C@H]2[C@H]3[C@H](O)[C@H](O)CC(=NOC[C@@H](O)COCc4ccco4)[C@@H]3CC[C@H]2C(=O)N1c1cccc(Oc2ccccc2)c1 have a reported z-score of at least 0.3?
Data returned: 1

Data request: Does CCN1C(=O)[C@H]2[C@H]3[C@H](O)[C@H](O)CC(=NO[C@@H](C)c4cc(-c5c(C)cc(C)cc5C)no4)[C@@H]3CC[C@H]2C1=O have a reported z-score of at least 0.3?
Data returned: -1

Data request: Does C[C@@H]1CC[C@H]2C(=O)O[C@@H](CN=[N+]=[N-])CN2[C@H]1c1ccc(Br)cc1 have a reported z-score of at least 0.3?
Data returned: -1

Data request: Does O=C1CCCC=C1C(O)c1ccc([N+](=O)[O-])cc1 (stereo not given) have a reported z-score of at least 0.3?
Data returned: -1

Data request: Does O=C1[C@H]2[C@H]3[C@H](O)[C@H](O)CC(=NO[C@@H]4O[C@H](CO)[C@@H](O)[C@H](O)[C@H]4O)[C@H]3CC[C@H]2C(=O)N1C[C@@H]1CCCO1 have a reported z-score of at least 0.3?
Data returned: 1

Data request: Does COC(=O)[C@H](C)NC(=O)CCC1CC(OC(=O)NCc2cccc3ccccc23)CC2(CCCC(COC(=O)NCc3ccccc3)O2)O1 (stereo not given in full) have a reported z-score of at least 0.3?
Data returned: 1

Data request: Does CCN1C(=O)[C@H]2[C@H]3[C@H](O)[C@H](O)CC(=NNC(=O)OCc4ccccc4)[C@H]3CC[C@H]2C1=O have a reported z-score of at least 0.3?
Data returned: -1

Further cases:
Data request: Does CO[C@@H]1C=CCC(=O)N[C@@H](C)C(=O)OC[C@@H](NS(=O)(=O)c2ccc(C)cc2)[C@H](C)C=CCC(=O)OC[C@H]1C have a reported z-score of at least 0.3?
Data returned: -1

Data request: Does COCCNC(=O)OCC1CCCC2(CC(OC(=O)NCc3cccc4ccccc34)CC(CCC(=O)N[C@@H](C)C(=O)OC)O2)O1 (stereo not given in full) have a reported z-score of at least 0.3?
Data returned: 1

Data request: Does CCOC(=O)[C@H](Cc1ccccc1)NC(=O)CCC1CC(OC(=O)NCc2ccc3c(c2)OCO3)CC2(CCCC(COC(=O)NCCOc3ccccc3)O2)O1 (stereo not given in full) have a reported z-score of at least 0.3?
Data returned: 1

Data request: Does CO[C@H]1COC(=O)CCC[C@H](C)[C@@H](OC)COC(=O)CC=C[C@@H]1C have a reported z-score of at least 0.3?
Data returned: 1

Data request: Does C[C@H]1C=CCC(=O)OC[C@H](C)C(=O)N2CCC[C@H]2C(=O)OC1 have a reported z-score of at least 0.3?
Data returned: -1

Data request: Does O=C1C2=CC[C@H]3C(=O)N(Cc4ccccc4)C(=O)[C@H]3[C@H]2[C@H](O)[C@@H]2O[C@H]12 have a reported z-score of at least 0.3?
Data returned: 1
